These entries and their values trace back to patent US20100048597A1.

assay.target: CDK1/cyclinB (Homo sapiens)
Construct: purchased Millipore
method: CDK1/cyclinB kinase assay, IMAP fluorescence polarization
Format: biochemical
particulars: read-out: CDK1 IC50
pIC50: −log10 of the molar value.
property.name: pIC50

Examples with their reported pIC50 follow.
compound	pIC50
CCc1c(-c2ccnc(Nc3cccc(Cl)c3)n2)ccnc1NCCCN [Compound 5]	> 5.30
CC(=O)NCCCCNc1ncccc1-c1ccnc(Nc2cccc(Cl)c2)n1 [Compound 85]	> 5.30
CCNC(=O)c1cccc(Nc2nccc(-c3cccnc3OC)n2)c1 [Compound 96]	> 5.30

Entry under review: CNCCCN(C)c1nccc(-c2ccnc(N(C)c3cccc(Cl)c3)n2)c1C [Compound 11] . Reported pIC50?
4.30 to 4.82

====

assay.target: CDK1/cyclinB (Homo sapiens, UniProt P06493)
Construct: purchased Millipore
Sequence (P06493 whole entry): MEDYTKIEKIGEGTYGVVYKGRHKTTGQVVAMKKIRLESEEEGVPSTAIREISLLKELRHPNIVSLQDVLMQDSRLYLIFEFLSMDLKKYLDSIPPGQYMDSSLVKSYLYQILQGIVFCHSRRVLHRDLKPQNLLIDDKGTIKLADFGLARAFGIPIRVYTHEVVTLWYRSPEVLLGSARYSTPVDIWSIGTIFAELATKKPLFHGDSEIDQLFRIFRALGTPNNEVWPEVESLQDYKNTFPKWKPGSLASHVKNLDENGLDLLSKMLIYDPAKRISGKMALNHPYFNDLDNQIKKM
Sequence (P14635 whole entry partner): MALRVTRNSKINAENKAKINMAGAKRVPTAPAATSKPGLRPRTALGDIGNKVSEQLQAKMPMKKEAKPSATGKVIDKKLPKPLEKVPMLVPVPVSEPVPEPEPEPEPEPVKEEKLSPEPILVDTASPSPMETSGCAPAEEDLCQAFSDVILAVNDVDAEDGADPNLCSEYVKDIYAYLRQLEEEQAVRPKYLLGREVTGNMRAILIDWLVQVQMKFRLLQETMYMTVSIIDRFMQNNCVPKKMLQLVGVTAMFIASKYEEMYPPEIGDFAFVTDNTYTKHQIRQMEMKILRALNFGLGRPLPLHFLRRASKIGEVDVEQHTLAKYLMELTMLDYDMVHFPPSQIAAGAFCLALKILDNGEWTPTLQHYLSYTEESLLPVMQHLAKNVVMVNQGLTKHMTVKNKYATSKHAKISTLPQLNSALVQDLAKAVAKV
method: CDK1/cyclinB kinase assay, IMAP fluorescence polarization
Type: biochemical
particulars: read-out: CDK1 IC50
property.name: IC50

Examples with their reported IC50 follow.
Cc1c(-c2ccnc(Nc3cccc(Cl)c3)n2)ccnc1NCCCO < 5 µM
COc1ncccc1-c1ccnc(Nc2cccc(NC(C)=O)c2)n1 < 5 µM
Cc1cnc(NCCCN)cc1-c1ccnc(Nc2cccc(Cl)c2)n1 < 5 µM
CC(C)NCCCNc1ncccc1-c1ccnc(Nc2cccc(Cl)c2)n1 < 5 µM
Cc1nccn1CCCNc1ncccc1-c1ccnc(Nc2cccc(Cl)c2)n1 < 5 µM
COCCCNc1ncccc1-c1ccnc(Nc2cccc(Cl)c2)n1 5 to 15 µM

Then this compound:
Entry under review: COc1ncccc1-c1ccnc(Nc2cccc(S(=O)(=O)N3CCCCC3)c2)n1 . Reported IC50?
5 to 15 µM

====

assay.target: CDK1/cyclinB (Homo sapiens, UniProt P06493)
Construct: purchased Millipore
method: CDK1/cyclinB kinase assay, IMAP fluorescence polarization
Type: biochemical
particulars: read-out: CDK1 IC50
property.name: IC50

Examples with their reported IC50 follow.
CC(=O)NCCCNc1nccc(-c2ccnc(Nc3cccc(CNC(C)=O)c3)n2)c1C > 50 µM
CC(=O)NCCCNc1cc(-c2ccnc(Nc3cccc(Cl)c3)n2)c(C)cn1 15 to 50 µM
CS(=O)(=O)c1cccc(Nc2nccc(-c3cccnc3Nc3cccc(S(C)(=O)=O)c3)n2)c1 < 5 µM
COc1ccc(-c2ccnc(Nc3cccc(Cl)c3)n2)c(OC)n1 > 50 µM
CNCCCN(C)c1nccc(-c2ccnc(Nc3cccc(Cl)c3)n2)c1C < 5 µM
CC(C)(C)C(=O)NCCCNc1ncccc1-c1ccnc(Nc2cccc(Cl)c2)n1 5 to 15 µM

Entry under review: Clc1cccc(Nc2nccc(-c3cccnc3NCCCN3CCOCC3)n2)c1 . Reported IC50?
5 to 15 µM

Entry under review: Cc1c(-c2ccnc(Nc3cccc(Cl)c3)n2)ccnc1NCCCn1ccnc1 . Reported IC50?
5 to 15 µM

Entry under review: COc1ncccc1-c1ccnc(Nc2cccc(N3CCCC3)c2)n1 . Reported IC50?
5 to 15 µM

====

Listed molecules paired with reported IC50
assay.target: CDK2/cyclinA (Homo sapiens)
method: CDK2/cyclinA kinase assay, IMAP fluorescence polarization

molecule	assay.target	assay.value
NCCCOc1ncccc1-c1ccnc(Nc2cccc(Cl)c2)n1 [Compound 120]	CDK2/cyclinA (Homo sapiens)	15 to 50 µM
Nc1cnccc1-c1ccnc(Nc2cccc(Cl)c2)n1 [Compound 1]	CDK2/cyclinA (Homo sapiens)	< 5 µM
CN(C)CCNc1ncccc1-c1ccnc(Nc2cccc(Cl)c2)n1 [Compound 53]	CDK2/cyclinA (Homo sapiens)	5 to 15 µM

Entry under review: CC(C)(C)C(=O)NCCCNc1ncccc1-c1ccnc(Nc2cccc(Cl)c2)n1 [Compound 70] . Reported IC50?
5 to 15 µM

Entry under review: O=C1CCCN1CCCNc1ncccc1-c1ccnc(Nc2cccc(Cl)c2)n1 [Compound 77] . Reported IC50?
< 5 µM

Entry under review: COc1ccc(-c2ccnc(Nc3cccc(S(C)(=O)=O)c3)n2)c(OC)n1 [Compound 119] . Reported IC50?
< 5 µM

Entry under review: CC(C)NCCCNc1ncccc1-c1ccnc(Nc2cccc(Cl)c2)n1 [Compound 64] . Reported IC50?
< 5 µM

Entry under review: N#Cc1cccc(Nc2nccc(-c3cccnc3NCCCN)n2)c1 [Compound 60] . Reported IC50?
< 5 µM

Entry under review: COc1ncccc1-c1ccnc(Nc2cccc(C(=O)OC(C)(C)C)c2)n1 [Compound 109] . Reported IC50?
< 5 µM
